Give measured Tm for each item. Keep answers brief.
SYSTEM UNDER TEST: Non-receptor tyrosine-protein kinase TYK2 (Homo sapiens, UniProt P29597)
Sequence (P29597 whole entry, the tested form may be a part): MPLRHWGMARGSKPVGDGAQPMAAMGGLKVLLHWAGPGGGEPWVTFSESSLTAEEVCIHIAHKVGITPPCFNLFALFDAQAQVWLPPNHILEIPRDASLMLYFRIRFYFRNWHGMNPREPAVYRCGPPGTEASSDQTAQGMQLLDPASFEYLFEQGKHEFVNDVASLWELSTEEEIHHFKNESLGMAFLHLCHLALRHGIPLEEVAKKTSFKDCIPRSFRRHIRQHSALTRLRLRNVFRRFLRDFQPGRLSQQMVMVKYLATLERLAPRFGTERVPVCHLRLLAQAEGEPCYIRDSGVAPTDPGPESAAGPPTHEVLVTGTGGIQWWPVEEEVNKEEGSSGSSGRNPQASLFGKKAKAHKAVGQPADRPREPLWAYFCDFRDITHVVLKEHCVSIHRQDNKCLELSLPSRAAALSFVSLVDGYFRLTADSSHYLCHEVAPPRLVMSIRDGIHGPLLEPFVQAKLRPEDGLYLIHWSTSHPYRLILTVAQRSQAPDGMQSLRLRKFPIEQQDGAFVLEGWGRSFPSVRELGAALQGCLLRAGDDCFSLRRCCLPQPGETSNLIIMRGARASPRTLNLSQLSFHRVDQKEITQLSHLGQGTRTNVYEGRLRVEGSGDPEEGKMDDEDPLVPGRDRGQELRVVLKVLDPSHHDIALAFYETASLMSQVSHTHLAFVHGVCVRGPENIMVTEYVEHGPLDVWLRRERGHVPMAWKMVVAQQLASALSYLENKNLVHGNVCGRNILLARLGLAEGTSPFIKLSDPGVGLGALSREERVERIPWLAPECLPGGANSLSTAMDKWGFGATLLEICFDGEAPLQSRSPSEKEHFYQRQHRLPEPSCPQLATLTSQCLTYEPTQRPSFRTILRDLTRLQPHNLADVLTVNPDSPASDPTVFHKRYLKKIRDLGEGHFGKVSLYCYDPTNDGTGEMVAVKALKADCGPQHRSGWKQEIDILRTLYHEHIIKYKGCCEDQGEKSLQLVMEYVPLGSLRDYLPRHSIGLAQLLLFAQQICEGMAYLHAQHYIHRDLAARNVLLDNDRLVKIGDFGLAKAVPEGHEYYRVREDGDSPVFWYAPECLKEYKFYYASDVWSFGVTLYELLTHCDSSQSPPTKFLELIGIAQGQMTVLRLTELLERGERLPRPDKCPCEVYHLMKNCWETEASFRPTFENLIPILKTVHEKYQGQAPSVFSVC
METHOD SUMMARY: Inhibition of TYK2 JH2 domain (unknown origin) assessed as melting temperature at 1 uM by thermal shift assay
TEST CONDITIONS: tested as the 2H-labelled form
# unit: °C | format: bare number

Query block: Recorded Tm for CNC(=O)c1nnc(NC(=O)C2CC2)cc1Nc1cccc(C(=O)Nc2ccc(NC[C@@H]3COCCO3)cc2)c1OC with Non-receptor tyrosine-protein kinase TYK2 (Homo sapiens, UniProt P29597), please?
Result block: 57.3

Query block: Please do the same for CNC(=O)c1nnc(NC(=O)C2CC2)cc1Nc1cccc(C(=O)Nc2ccc3c(c2)CN(C2CC2)C3=O)c1OC as well.
Result block: 55.1

Query block: Please do the same for CNC(=O)c1nnc(NC(=O)C2CC2)cc1Nc1cccc(C(=O)Nc2ccc(S(=O)(=O)N3CCCC3)cc2)c1OC as well.
Result block: 58.2

Query block: Please do the same for CNC(=O)c1nnc(Nc2ccccn2)cc1Nc1cccc(C(=O)Nc2ccc(C(=O)N3CCCC3)cc2)c1OC as well.
Result block: 65.9

Query block: Please do the same for CNC(=O)c1nnc(NC(=O)C2CC2)cc1Nc1cccc(C(=O)Nc2ccc3c(c2)CC(=O)N3)c1OC as well.
Result block: 54.5

Query block: Please do the same for CNC(=O)c1nnc(NC(=O)C2CC2)cc1Nc1cccc(C(=O)Nc2ccc(C(=O)N3CCCC3)c(F)c2)c1OC as well.
Result block: 60.9

Query block: Please do the same for CNC(=O)c1nnc(NC(=O)C2CC2)cc1Nc1cccc(C(=O)Nc2ccc(NC[C@H]3COCCO3)cc2)c1OC as well.
Result block: 58.4

Query block: Please do the same for CNC(=O)c1nnc(NC(=O)C2CC2)cc1Nc1cccc(C(=O)Nc2ccc3c(c2)C(=O)NC3)c1OC as well.
Result block: 52.5

Query block: Please do the same for CNC(=O)c1nnc(NC(=O)C2CC2)cc1Nc1cccc(C(=O)Nc2ccc(C(=O)N3C4CCC3CC4)cc2)c1OC as well.
Result block: 62.7

Query block: Please do the same for CNC(=O)c1nnc(NC(=O)C2CC2)cc1Nc1cccc(C(=O)Nc2csc(C(N)=O)c2)c1OC as well.
Result block: 53.7

Query block: Please do the same for CNC(=O)c1nnc(Nc2ccccn2)cc1Nc1cccc(C(=O)Nc2ccc(NC[C@H]3COCCO3)cc2)c1OC as well.
Result block: 56.9

Query block: Please do the same for CNC(=O)c1nnc(NC(=O)C2CC2)cc1Nc1cc(F)cc(C(=O)Nc2ccc(NC[C@H]3COCCO3)cc2)c1OC as well.
Result block: 60

Query block: Please do the same for CNC(=O)c1nnc(Nc2ccc(F)cn2)cc1Nc1cccc(C(=O)Nc2ccc(C(=O)N3CCCC3)cc2)c1OC as well.
Result block: 65.4

Query block: Please do the same for CNC(=O)c1nnc(NC(=O)C2CC2)cc1Nc1cccc(C(=O)Nc2ccc(NCC3CCOCC3)cc2)c1OC as well.
Result block: 57.1

Query block: Please do the same for CNC(=O)c1ccc(NC(=O)c2cccc(Nc3cc(NC(=O)C4CC4)nnc3C(=O)NC)c2OC)cc1 as well.
Result block: 54.6

Data provenance is ChEMBL document CHEMBL5126671.
